MEASUREMENT PROTOCOL: Cytotoxicity against human HCT115 cells
Assay type: functional, cell-based
PROPERTY MEASURED: IC50 (µM)

1) CC(O)CC1C/C=C/C=C/C=C/C(O)CC(O)CC(O)C/C=C/C=C/C=C/C(=O)O1 (centres undefined) ... 35
2) COC1/C=C/C=C/C=C/CC(CC(C)O)OC(=O)/C=C/C=C/C=C/CC(O)CC(O)C1 (centres undefined) ... 41.7
3) CC(O)CC1CC(O)/C=C/C=C/C=C/CC(O)CC(O)C/C=C/C=C/C=C/C(=O)O1 (centres undefined) ... 52.4
4) COC1/C=C/C=C/C=C/CC(O)CC(O)C/C=C/C=C/C=C/C(=O)OC(CC(C)O)C1 (centres undefined) ... 44.7

Data credit: ChEMBL document CHEMBL1157232
